Values from patent US20230391752A1

Consider the following compounds and their measured activity at 1 µM readings.
- Test system: HBV
- assay_method_text: In vitro anti-HBV activity in HepG2.2.15 cell line (intracellular HBV DNA by qPCR at 1 μM)
- Assay type: cell-based
- test_context: Hepatitis B virus, 144 h; HepG2.2.15 cells, 1 μM compound, 6 days, intracellular HBV DNA as percentage compared to vehicle control (0.5% DMSO)

Examples with answers:
>  <compound>
Cc1ncccc1C(=O)c1ccc(C(=O)N2CC[C@H](C(=O)Nc3cc(F)c(F)c(F)c3)C2)[nH]1

>  <target_or_test_system>
HBV

>  <metric>
activity at 1 µM

>  <observed_measurement>
> 90%

$$$$
>  <compound>
Cc1cc(NC(=O)[C@H]2CCN(C(=O)c3ccc(-c4c(C)n[nH]c4C)[nH]3)C2)ccc1F

>  <target_or_test_system>
HBV

>  <metric>
activity at 1 µM

>  <observed_measurement>
< 45%

$$$$
>  <compound>
O=C(c1cccnc1)c1ccc(C(=O)N2CC[C@H](C(=O)Nc3cc(F)c(F)c(F)c3)C2)[nH]1

>  <target_or_test_system>
HBV

>  <metric>
activity at 1 µM

>  <observed_measurement>
> 90%

$$$$
>  <compound>
O=C(Nc1cc(F)c(F)c(F)c1)[C@H]1CCN(C(=O)c2ccc(-c3ccccn3)[nH]2)C1

>  <target_or_test_system>
HBV

>  <metric>
activity at 1 µM

>  <observed_measurement>
70 to 80%

$$$$
>  <compound>
Cn1cc(-c2ccc(C(=O)N3CC[C@H](C(=O)Nc4cc(F)c(F)c(F)c4)C3)[nH]2)c2ccncc21

>  <target_or_test_system>
HBV

>  <metric>
activity at 1 µM

>  <observed_measurement>
60 to 70%

$$$$

Q. Using the record for Cc1cc(C)c(C(=O)N2CC[C@H](C(=O)Nc3cc(F)c(F)c(F)c3)C2)[nH]1 , state its measured activity at 1 µM.
A. > 90%

Q. Using the record for O=C(Nc1cc(F)c(F)c(F)c1)[C@H]1CCN(C(=O)c2ccc(-c3ccncc3F)[nH]2)C1 , state its measured activity at 1 µM.
A. 45 to 60%

Q. Using the record for Cc1cc(NC(=O)[C@@H]2CN(C(=O)c3ccc(-c4c(C)ncnc4C)[nH]3)C[C@H]2C)ccc1F , state its measured activity at 1 µM.
A. 45 to 60%

Q. Using the record for Cc1cc(Cl)c(C(=O)N2CC[C@H](C(=O)Nc3cc(F)c(F)c(F)c3)C2)s1 , state its measured activity at 1 µM.
A. 80 to 90%

Q. Using the record for Cc1c(-c2ccc(C(=O)N3CC[C@H](C(=O)Nc4cc(F)c(F)c(F)c4)C3)[nH]2)cnc2[nH]ccc12 , state its measured activity at 1 µM.
A. < 45%

Q. Using the record for O=C(Nc1cc(F)c(F)c(F)c1)[C@H]1CCN(C(=O)c2ccc(-c3cccnc3)[nH]2)C1 , state its measured activity at 1 µM.
A. 45 to 60%

Q. Using the record for Cc1cc[nH]c(=O)c1-c1ccc(C(=O)N2CC[C@H](C(=O)Nc3ccc(F)c(Cl)c3)[C@@H]2C)[nH]1 , state its measured activity at 1 µM.
A. < 45%

Q. Using the record for Cc1cc(C(=O)N2CC[C@H](C(=O)Nc3cc(F)c(F)c(F)c3)C2)[nH]c1C , state its measured activity at 1 µM.
A. 60 to 70%

Q. Using the record for O=C(Nc1cc(F)c(F)c(F)c1)[C@H]1CCN(C(=O)c2cc3ccccc3[nH]2)C1 , state its measured activity at 1 µM.
A. < 45%

Q. Using the record for CC(O)c1c[nH]c(C(=O)N2CC[C@H](C(=O)Nc3cc(F)c(F)c(F)c3)C2)c1 (stereo partly drawn) , state its measured activity at 1 µM.
A. 70 to 80%
